Give EC50 for every item shown.
- Tested Target: UniProtKB P21462
- Sequence (P21462 whole entry): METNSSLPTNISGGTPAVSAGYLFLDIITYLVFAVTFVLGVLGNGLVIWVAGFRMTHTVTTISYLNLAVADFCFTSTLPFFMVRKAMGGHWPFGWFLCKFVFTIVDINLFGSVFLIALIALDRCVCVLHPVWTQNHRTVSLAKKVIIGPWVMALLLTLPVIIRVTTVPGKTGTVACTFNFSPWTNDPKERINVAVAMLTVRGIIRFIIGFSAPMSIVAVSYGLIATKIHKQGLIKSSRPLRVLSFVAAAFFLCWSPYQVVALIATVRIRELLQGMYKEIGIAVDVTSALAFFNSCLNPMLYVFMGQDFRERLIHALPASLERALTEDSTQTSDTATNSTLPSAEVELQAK
- Assay Notes: FPR1 cyclic adenosine monophosphate (cAMP) assay
- Measurement Conditions: CHO cells overexpressing human FPR1; forskolin 10 μM, IBMX 200 μM; inhibition of cAMP production, HTRF; read-out: hFPR1 cAMP EC50
Give bare numbers, in nM.

| Molecule | Test Value |
| --- | --- |
| CC1C[C@@H](NC(=O)Nc2ccc(Cl)cc2F)C(=O)N1c1ccc(-c2ccccc2S(C)(=O)=O)c(F)c1F (stereo partly drawn) [Example 129] | 19 |

API: value(readout=EC50, system=UniProtKB P21462) for record COc1c(-c2ccccc2NS(C)(=O)=O)ccc(N2CC[C@@H](NC(=O)Nc3ccc(Cl)cc3F)C2=O)c1F [Example 34]
26

Numbers sourced from patent US10676431B2.
